// provenance: patent US20120165319A1

Each entry below lists one item and its recorded pKi value.
target: ICE (Homo sapiens, UniProt P29466); assay: Enzyme assay with UV-visible substrate (visible ICE assay, Succinyl-Tyr-Val-Ala-Asp-pNitroanilide); type: biochemical; details: Table 17
Sequence (P29466 120-297 limits assumed): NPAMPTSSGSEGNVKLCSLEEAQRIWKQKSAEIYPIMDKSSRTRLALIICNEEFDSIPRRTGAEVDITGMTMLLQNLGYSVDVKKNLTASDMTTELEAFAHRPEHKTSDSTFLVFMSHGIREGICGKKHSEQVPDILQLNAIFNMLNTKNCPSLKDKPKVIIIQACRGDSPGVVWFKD
Sequence (P29466 317-404 limits assumed): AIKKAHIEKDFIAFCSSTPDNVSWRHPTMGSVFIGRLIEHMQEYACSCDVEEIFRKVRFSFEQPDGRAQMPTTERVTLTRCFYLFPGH
Note on units: pKi is unitless, being -log10 of a concentration expressed in mol/L.

Below, each entry is followed by its recorded pKi result.
{"columns": ["molecule", "pKi"],
 "data": [
  ["CC(=O)N1C[C@H](NC(=O)C(=O)c2ccco2)C(=O)N(CC(=O)N[C@H](C=O)CC(=O)O)c2ccccc21", 6.76],
  ["COc1c(Cl)cc(C(=O)N[C@H]2CN(C(C)=O)c3ccccc3N(CC(=O)N[C@H](C=O)CC(=O)O)C2=O)cc1Cl", 7.85],
  ["O=C[C@H](CC(=O)O)NC(=O)[C@@H]1CCCN2C(=O)CCN(NC(=O)/C=C/c3ccc4c(c3)OCO4)C(=O)N12", 6.67],
  ["CC(=O)NCC(=O)N1C[C@H](NC(=O)c2cccc3ccccc23)C(=O)N(CC(=O)N[C@H](C=O)CC(=O)O)c2ccccc21", 6.82],
  ["CC(=O)N1C[C@H](NC(=O)C(=O)c2cccs2)C(=O)N(CC(=O)N[C@H](C=O)CC(=O)O)c2ccccc21", 7.05]
]}

Form field: reported pKi of CO/N=C/[C@H](CC(=O)O)NC(=O)[C@@H]1CCCN2C(=O)CC[C@H](NC(=O)c3ccc(OC)cc3)C(=O)N12 [Compound 308c]
5.52

Please give the measured pKi for this molecule: O=C[C@H](CC(=O)O)NC(=O)[C@@H]1CCCN2C(=O)CC[C@H](NC(=O)c3cc(Cl)cc(Cl)c3)C(=O)N12 [Compound 214j]
8.38

Name the reported pKi value associated with the molecule COc1ccccc1C(=O)C(=O)NN1CCC(=O)N2CCC[C@@H](C(=O)N[C@H](C=O)CC(=O)O)N2C1=O
7.74

Which pKi is listed for O=C[C@H](CC(=O)O)NC(=O)[C@@H]1CCCN2C(=O)CC[C@H](NC(=O)C(=O)Nc3ccc(Cl)cc3)C(=O)N12 ?
7.60

If you can, please state the reported pKi value of O=C[C@H](CC(=O)O)NC(=O)[C@@H]1CCCN2C(=O)CCN(NC(=O)C(=O)c3ccccc3)C(=O)N12 .
7.12

What does the record list as pKi for O=C[C@H](CC(=O)O)NC(=O)[C@@H]1CCCN2C(=O)CCN(NC(=O)c3ccc(O)cc3)C(=O)N12 ?
6.77

Param item = O=C[C@H](CC(=O)O)NC(=O)[C@@H]1CCCN2C(=O)CCN(NC(=O)CCC3CCCCC3)C(=O)N12 ; retrieve measured pKi.
6.29

# input molecule: COc1c(Cl)cc(C(=O)N[C@H]2CN(C(=O)CO)c3ccccc3N(CC(=O)N[C@H](C=O)CC(=O)O)C2=O)cc1Cl ; wanted: its pKi
8.15

Could you tell me which pKi is on file for CC(=O)N1C[C@H](NC(=O)C(=O)c2ccc3c(c2)OCO3)C(=O)N(CC(=O)N[C@H](C=O)CC(=O)O)c2ccccc21 ?
7.35

Please report the recorded pKi for COCC(=O)N1C[C@H](NC(=O)C(=O)c2ccccc2)C(=O)N(CC(=O)N[C@H](C=O)CC(=O)O)c2ccccc21 .
7.46

So what's the measured pKi for this one? O=C[C@H](CC(=O)O)NC(=O)CN1C(=O)[C@@H](NC(=O)c2nccc3ccccc23)CN(C(=O)CO)c2ccccc21
8.35

What does the data say about its pKi? Entry: COCC(=O)N1C[C@H](NCc2ccc3ccccc3c2)C(=O)N(CC(=O)N[C@H](C=O)CC(=O)O)c2ccccc21
6.81

Field request: pKi | item: O=C[C@H](CC(=O)O)NC(=O)CN1C(=O)[C@@H](NC(=O)c2ccc(O)cc2)CN(C(=O)CO)c2ccccc21 [Compound 691b]
7.94

Given the entry Cc1cc(C)c(CC(=O)NN2CCC(=O)N3CCC[C@@H](C(=O)N[C@H](C=O)CC(=O)O)N3C2=O)c(C)c1 , report its measured pKi.
6.40

Please give the measured pKi for this molecule: O=C[C@H](CC(=O)O)NC(=O)[C@@H]1CCCN2C(=O)CCN(NC(=O)CCc3ccc(Cl)cc3)C(=O)N12
6.54
